# measurement.notes: Cardiotoxic activity in vitro, beating of myocardial cells
# Format: cell-based, mice
# study.conditions: mouse, 0.5 μg/ml, read-out: decrease of beating
endpoint.name: inhibition at 2 h (%)
Give the quantity in %, number only.

Record summary for COc1cccc2c1C(=O)c1c(O)c3c(c(O)c1C2=O)C[C@@](O)(C(=O)CO)C[C@@H]3O[C@H]1C[C@H](N)[C@H](O)[C@H](C)O1 [Adriamycin] : reported inhibition at 2 h = 50

====

# measurement.notes: cell proliferation in uninfected mouse embryo fibroblast cultures (cytotoxic action)
# Format: cell-based
# study.conditions: mouse embryo fibroblasts, treatment of 3 days, read-out: Cytotoxic Action ID50
endpoint.name: CC50 at 72 h (µg/mL)
Give the quantity in µg/mL, number only.

COc1cccc2c1C(=O)c1c(O)c3c(c(O)c1C2=O)C[C@@](O)(C(=O)CO)C[C@@H]3O[C@H]1C[C@H](N)[C@H](O)[C@H](C)O1 [Adriamycin] :: 0.01

// next entry
Record summary for COc1cccc2c1C(=O)c1c(O)c3c(c(O)c1C2=O)CC(O)(C(=O)CO)CC3OC1CC(N)C(O)C(C)O1 (stereo not drawn) [4'-Epi-adriamycin] : reported CC50 at 72 h = 0.01
